test system: P. falciparum; experiment: Parasite growth inhibition assay (SYBR Gold, 72 h); format: cell-based, Plasmodium falciparum 3D7; settings: asynchronous culture, cRPMI, up to 50 µM, N=5, listed as cordycepin, read-out: P. falciparum IC50
MEASURED_QUANTITY: IC50

Qu. What IC50 value was documented for this molecule, Nc1ncnc2c1ncn2[C@@H]1O[C@H](CO)C[C@H]1O [Cordycepin, cordycepin] ?
Ans. > 10 µM

----------
system: P. falciparum; assay: Parasite growth inhibition assay (SYBR Gold, 72 h); format: cell-based, Plasmodium falciparum 3D7; conditions: Plasmodium falciparum, read-out: P. falciparum IC50, asynchronous culture, cRPMI, 72 h
MEASURED_QUANTITY: IC50 (nM)
Your answer should be a plain number; it is taken to be in nM.

Qu. What IC50 value was documented for this compound, CCN(CC)CCCC(C)Nc1ccnc2cc(Cl)ccc12 (stereo not shown) [chloroquine] ?
Ans. 22

----------
system: P. falciparum; assay: Parasite growth inhibition assay (SYBR Gold, 72 h); format: cell-based, Plasmodium falciparum 3D7; conditions: Plasmodium falciparum, asynchronous culture, cRPMI, read-out: P. falciparum IC50
MEASURED_QUANTITY: pIC50
Keep it numeric: pIC50 is minus log10 of the concentration in mol/L.

Qu. Recorded pIC50 for C[C@@H]1CC[C@H]2[C@@H](C)C(=O)O[C@@H]3O[C@@]4(C)CC[C@@H]1[C@]32OO4 [artemisinin] with P. falciparum, please?
Ans. 7.92
